- measured on: Human immunodeficiency virus type 1 protease (Human immunodeficiency virus 1)
- run description: Inhibitory concentration against wild-type human immunodeficiency virus (HIV-WT) protease
value type: IC50 (µM)
Give the value in µM but do not write µM after it.

Please review the entries below; each comes with its answer.
{"compound": "CC(C)[C@@H]1NC(=O)[C@@H](NC(=O)[C@H](O)[C@H](Cc2ccccc2)NC(=O)OC(C)(C)C)Cc2ccc(cc2)OCCCNC1=O", "value type": "IC50", "value": 0.63}
{"compound": "CC(C)[C@@H]1NC(=O)[C@@H](NC(=O)C(=O)C(Cc2ccccc2)NC(=O)OC(C)(C)C)Cc2ccc(cc2)OCCCNC1=O (some centres undefined)", "value type": "IC50", "value": 0.013}

May I ask what IC50 has been recorded for `COC(=O)[C@H](O)[C@H](Cc1ccccc1)NC(=O)[C@@H](NC(=O)[C@H](Cc1ccc(O)cc1)NC(C)=O)C(C)C` ?
71

May I ask what IC50 has been recorded for `CC(C)[C@@H]1NC(=O)[C@@H](NC(=O)[C@@H](O)[C@H](Cc2ccccc2)NC(=O)OC(C)(C)C)Cc2ccc(cc2)OCCCNC1=O` ?
0.1

====

- measured on: Human immunodeficiency virus type 1 protease (Human immunodeficiency virus 1, UniProt Q72874, F53L)
- run description: Inhibitory concentration against TL3-resistant HIV(F53L) mutant protease
- condition set: pooled result: one value given for 5 cell lines, strains, targets or settings
Item-by-item account of pIC50
Kindly note that pIC50 refers to -log10 of the concentration in mol/L and answer with the value alone.

{"smiles representation": "CC(=O)N[C@@H](Cc1ccccc1)C(=O)N[C@H](C(=O)N[C@@H](Cc1ccccc1)[C@@H](O)C(=O)N[C@H]1Cc2ccc(cc2)OCCCNC(=O)[C@H](C(C)C)NC1=O)C(C)C", "value": 7.10}

May I ask what pIC50 has been recorded for `CC(=O)N[C@@H](Cc1c[nH]c2ccccc12)C(=O)N[C@H](C(=O)N[C@@H](Cc1ccccc1)[C@@H](O)C(=O)N[C@H]1Cc2ccc(cc2)OCCCNC(=O)[C@H](C(C)C)NC1=O)C(C)C` ?
7.31

====

- measured on: Human immunodeficiency virus type 1 protease (Human immunodeficiency virus 1, UniProt Q72874, F53L)
- run description: Inhibitory concentration against TL3-resistant HIV(F53L) mutant
value type: pIC50
Kindly note that pIC50 refers to -log10 of the concentration in mol/L and answer with the value alone.

May I ask what pIC50 has been recorded for `CC(=O)N[C@@H](Cc1ccc(O)cc1)C(=O)N[C@H](C(=O)N[C@@H](Cc1ccccc1)[C@@H](O)C(=O)N[C@H]1Cc2ccc(cc2)OCCCNC(=O)[C@H](C(C)C)NC1=O)C(C)C` ?
7.15
